- Tested on: Escherichia coli IAI1
- Assay Summary: growth (OD595) fold change vs plate DMSO controls (fold change (ratio)); higher = more growth
- Run Conditions: incubation time: 27 h, anaerobic, 37 °C
Counter-ions that a name gives are not always drawn.
Recorded Metric: growth

>>> df
                                   compound  recorded_metric  experimental_value
0  CC(C)C(=O)Nc1ccc([N+](=O)[O-])c(C(F)(F)F)c1 [Flutamide] (20 µM)           growth                   1
1  C[C@@H]1C[C@H]2[C@@H]3C[C@H](F)C4=CC(=O)C=C[C@]4(C)[C@@]3(F)[C@@H](O)C[C@]2(C)[C@@]1(O)C(=O)CO [Flumethasone] (20 µM)           growth                   1
2  CC(C)(C(=O)c1cccnc1)c1cccnc1 [Metyrapone] (20 µM)           growth                1.01
3  O=C(CO)[C@@H](O)[C@H](O)[C@H](O)CO [D(-) Fructose] (50 µM)           growth                1.02
4        O=S(=O)(O)CCS [Coenzyme M] (20 µM)           growth                1.06
5  CC(CCc1ccccc1)NCC(O)c1ccc(O)c(C(N)=O)c1 (configuration not stated) [Labetalol hydrochloride] (20 µM)           growth               0.963
6  O=C(CCCN1CCC(O)(c2ccc(Br)cc2)CC1)c1ccc(F)cc1 [Bromperidol] (20 µM)           growth               0.965

---

- Tested on: Escherichia coli IAI1
- Assay Summary: fold change of Putrescine concentration vs plate DMSO controls (fold change (ratio)); higher = more amine produced, active = hit call of the paper (significant change in both replicates, either direction)
- Run Conditions: incubation time: 27 h, anaerobic, 37 °C
Where a name gives a salt, the structure may show the parent alone.
Recorded Metric: fold change of Putrescine concentration

In [3]: df
Out[3]:
                                   compound                          recorded_metric  experimental_value
0  C#C[C@]1(O)CC[C@H]2[C@@H]3CCc4cc(O)ccc4[C@H]3CC[C@@]21C [Ethinylestradiol] (20 µM)  fold change of Putrescine concentration     1.05 (inactive)
1  CN(Cc1cc(Br)cc(Br)c1N)C1CCCCC1 [Bromhexine hydrochloride] (20 µM)  fold change of Putrescine concentration        1 (inactive)
2  O=C1NCN(c2ccccc2)C12CCN(CCCC(c1ccc(F)cc1)c1ccc(F)cc1)CC2 [Fluspirilene] (20 µM)  fold change of Putrescine concentration    0.996 (inactive)
3  CCn1cc(C(=O)O)c(=O)c2cnc(N3CCCC3)nc21 [Piromidic acid] (20 µM)  fold change of Putrescine concentration    0.913 (inactive)

---

- System: Clostridium sporogenes DSM 1664
- Assay Summary: growth (OD595) fold change vs plate DMSO controls (fold change (ratio)); higher = more growth
- Run Conditions: incubation time: 27 h, anaerobic, 37 °C
Counter-ions that a name gives are not always drawn.
Recorded Metric: growth

>>> df
                                   compound  recorded_metric  experimental_value
0  O=C(O)CCCC[C@@H]1SC[C@@H]2NC(=O)N[C@@H]21 [Biotin] (20 µM)           growth                1.02
1  CN(C)CCOC(c1ccccc1)c1ccccc1.Cn1c(=O)c2[nH]c(Cl)nc2n(C)c1=O [Dimenhydrinate] (20 µM)           growth                0.99
2  C#C[C@]1(O)CC[C@H]2[C@@H]3CCc4cc(OC)ccc4[C@H]3CC[C@@]21C [Mestranol] (20 µM)           growth               0.992
3  CC(C)(C)NC[C@H](O)COc1nsnc1N1CCOCC1 [Timolol maleate salt] (20 µM)           growth                   1

---

- System: Ruminococcus gnavus DSM 108212
- Assay Summary: growth (OD595) fold change vs plate DMSO controls (fold change (ratio)); higher = more growth
- Run Conditions: incubation time: 27 h, anaerobic, 37 °C
Structures can show the parent of a compound that is named as a salt.
The threshold is inclusive: growth of exactly 1 counts as YES; values below receive NO.

Molecule	Assigned Class
CCOC(=O)C(C)(N)Cc1cc(I)c(Oc2cc(I)c(O)c(I)c2)c(I)c1 (centres undefined) [Etiroxate hydrochloride] (20 µM)	YES
CC(C)NC[C@H](O)COc1cccc2ccccc12 [(S)-(-)-Propranolol hydrochloride] (20 µM)	YES
CN1CCN(C(c2ccccc2)c2ccccc2)CC1 [Cyclizine hydrochloride] (20 µM)	YES
CC1(C)S[C@@H]2[C@H](NC(=O)C(C(=O)O)c3ccccc3)C(=O)N2[C@H]1C(=O)O (some centres undefined) [Carbenicillin disodium salt] (20 µM)	NO
CCCC(=O)Nc1ccc(OCC(O)CNC(C)C)c(C(C)=O)c1 (centres undefined) [Acebutolol hydrochloride] (20 µM)	NO
CCCCS(=O)(=O)N[C@@H](Cc1ccc(OCCCCC2CCNCC2)cc1)C(=O)O [Tirofiban hydrochloride] (20 µM)	YES
O=C(OCCOCCO)c1ccccc1Nc1cccc(C(F)(F)F)c1 [Etofenamate] (20 µM)	YES

---

- Tested on: Clostridium sporogenes DSM 1664
- Assay Summary: fold change of Tryptamine concentration vs plate DMSO controls (fold change (ratio)); higher = more amine produced, active = hit call of the paper (significant change in both replicates, either direction)
- Run Conditions: incubation time: 27 h, anaerobic, 37 °C
Structures can show the parent of a compound that is named as a salt.
The threshold is inclusive: fold change of Tryptamine concentration of exactly 1 counts as YES; values below receive NO.

Compound	Assigned Class
CCCCCCCCc1c(CC)nc2ncnn2c1N (20 µM)	YES
CCOC(=O)C1=C[C@@H](OC(CC)CC)[C@H](NC(C)=O)[C@@H](N)C1 [Oseltamivir phosphate] (20 µM)	YES
CCOC(=O)c1ccc(N)cc1 [Benzocaine] (20 µM)	YES
CCCCCCOc1ccccc1C(N)=O [Exalamide] (20 µM)	NO
O=C(O)COCCN1CCN(C(c2ccccc2)c2ccc(Cl)cc2)CC1 (centres undefined) [Cetirizine dihydrochloride] (20 µM)	YES
CC(C)NCC(O)COc1ccc(CCOCC2CC2)cc1 (centres undefined) [Betaxolol hydrochloride] (20 µM)	NO
Clc1ccc2c(c1)CCc1cccnc1C2=C1CCNCC1 [Desloratadine] (20 µM)	YES
CC(C)(C)NCC(O)COc1cccc2c1CC(O)C(O)C2 (centres undefined) [Nadolol] (20 µM)	YES
CCCN(CCC)C(=O)C(CCC(=O)O)NC(=O)c1ccccc1 (centres undefined) [Proglumide] (20 µM)	YES
CC[C@H]1OC(=O)[C@H](C)[C@@H](O[C@H]2C[C@@](C)(OC)[C@@H](O)[C@H](C)O2)[C@H](C)[C@@H](O[C@@H]2O[C@H](C)C[C@H](N(C)C)[C@H]2O)[C@](C)(O)C[C@@H](C)C(=O)[C@H](C)[C@@H](O)[C@]1(C)O [Erythromycin] (20 µM)	NO
CC(C)(c1ccc(O)cc1)c1ccc(O)cc1 [Bisphenol A] (20 µM)	NO
CC(C(=O)O)c1ccc(CC2CCCC2=O)cc1 (centres undefined) [Loxoprofen] (20 µM)	YES
CCCCC(CC)CN1CN(CC(CC)CCCC)CC(C)(N)C1 (centres undefined) [Hexetidine] (20 µM)	YES

---

- Tested on: Klebsiella aerogenes DSM 30053
- Assay Summary: fold change of Histamine concentration vs plate DMSO controls (fold change (ratio)); higher = more amine produced, active = hit call of the paper (significant change in both replicates, either direction)
- Run Conditions: incubation time: 27 h, anaerobic, 37 °C
Counter-ions that a name gives are not always drawn.
Quick list: fold change of Histamine concentration per entry.

Compound	fold change of Histamine concentration
CN1CCC(=C2c3ccccc3CC(=O)c3sccc32)CC1 [Ketotifen fumarate] (20 µM)	0.935
Nc1ccc(S(=O)(=O)c2ccc(N)cc2)cc1 [Dapsone] (20 µM)	0.967
O=C(c1cc(O)c(O)c(O)c1)c1ccc(O)c(O)c1O [Exifone] (20 µM)	1.06
CN(CCCN1c2ccccc2CCc2ccccc21)CC(=O)c1ccc(Cl)cc1 [Lofepramine] (20 µM)	0.986
CCOC(=O)C1=C[C@@H](OC(CC)CC)[C@H](NC(C)=O)[C@@H](N)C1 [Oseltamivir phosphate] (20 µM)	1.03
Cc1cc(C(C)(C)C)c(O)c(C)c1CC1=NCCN1 [Oxymetazoline hydrochloride] (20 µM)	0.947
CS(=O)(=O)Nc1ccc([N+](=O)[O-])cc1Oc1ccccc1 [Nimesulide] (20 µM)	1.07
Clc1ccc(CO/N=C(\Cn2ccnc2)c2ccc(Cl)cc2Cl)c(Cl)c1 [Oxiconazole nitrate] (20 µM)	1.02
CC(=O)Nc1nnc(S(N)(=O)=O)s1 [Acetazolamide] (20 µM)	1.04
COc1c(O[C@@H]2O[C@H](CO)[C@@H](O)[C@H](O)[C@H]2O)cc2c(c1OC)-c1ccc(SC)c(=O)cc1[C@@H](NC(C)=O)CC2 [Thiocolchicoside] (20 µM)	1.1

The values you see were collected from the supplement of paper PMC12494721.
